Tested on: thromboplastin clotting time in human plasma
Assay: prothrombin time test (thromboplastin clotting time in human plasma)
Type: biochemical
Details: 180 micrograms per milliliter of plasma; 37° C.; human plasma
We begin with a simple list: items and their reported plasma prothrombin time.

- compound: "CCCCCCOc1ccc(CC(CNC)c2ccccc2)cc1 (centres unmarked)"
  experimental_system: "thromboplastin clotting time in human plasma"
  plasma prothrombin time: "87 s"
- compound: "CCCCOc1ccc(CC(CN)c2ccccc2)cc1.Cl (centres unmarked)"
  experimental_system: "thromboplastin clotting time in human plasma"
  plasma prothrombin time: "83 s"
- compound: "CCCCCCOc1ccc(CC(CN)c2ccc(F)cc2)cc1 (centres unmarked)"
  experimental_system: "thromboplastin clotting time in human plasma"
  plasma prothrombin time: "500 s"
- compound: "CCCCCCCCCCCCOc1ccc(CCC(C)NCCN(C)C)cc1 (centres unmarked)"
  experimental_system: "thromboplastin clotting time in human plasma"
  plasma prothrombin time: "87 s"
- compound: "Cl.NCC(Cc1ccc2c(c1)OCO2)c1ccccc1 (centres unmarked)"
  experimental_system: "thromboplastin clotting time in human plasma"
  plasma prothrombin time: "21 s"
